Test system: SF-539 CNS
ASSAY_NAME: NCI tumour cell line growth inhibition, 48 h
OBSERVABLE: TGI

COMPOUND	OBSERVABLE	OBSERVED_RESULT
Cc1[nH]n(-c2nc(O)c(C)c(=O)[nH]2)c(=O)c1CCO	TGI	> 100 µM

q: Report TGI for COC(=O)c1cc(C)ccc1CC(Cc1ccccc1C)C(=O)OC (stereo not drawn)
a: > 100 µM

q: Report TGI for c1ccc(-c2cc(-c3cc(-c4ccccc4)n[nH]3)[nH]n2)cc1
a: > 100 µM

###

System: NCI/ADR-RES ovarian
ASSAY_NAME: NCI tumour cell line growth inhibition, 48 h
Below, each of the molecules is paired with its reported TGI value.

Use these answered entries as a reference point.
CPD_SMILES	TGI
C[C@@H]1CCN(C(=O)CC#N)C[C@@H]1N(C)c1ncnc2[nH]ccc12	> 100 µM
O=C(Nc1ccncc1)C(=O)c1cn(S(=O)(=O)c2ccccc2F)c2ccccc12	> 100 µM
CC1(C)N=C(N)N=C(N)N1c1ccc(CCCCc2ccc(Cl)cc2Cl)cc1	> 100 µM
CN(C)CC#Cc1cccc(C(=O)c2cnn(-c3ccc(F)cc3)c2N)c1	> 25 µM

q: Report TGI for CC1(C)N=C(N)N=C(N)N1c1cccc(CCCCc2ccc(S(=O)(=O)F)cc2Cl)c1
a: > 100 µM
